Target: T1, huNav1.7α (human, UniProt Q15858 1-1988)
T1 construct: HEK cells expressing the α subunit alone; also called HEKa; HEK huNav1.7α
Assay: further characterization (binding ELISA and FACS)
quantityKind: binding result

Below: 4 binders and their reported binding result.
| binder | binding result |
| --- | --- |
| F0103495F09 (VHH, also called F103495F09) VHH: EVQLVESGGGLVQAGSSLSLSCAASGRALSTYAMGWFRQAPGKEREFVARISRSGITTYYTDSVKGRFTISRDRAKDTVYLQMNSLKPEDTAIYLCAADASTNPAGYYLRNRYDYWGQGTLVTVSS | no binding |
| F0103500E03 (VHH, Purified monovalent protein) VHH: EVQLVESGGGLVQPGGSLRLSCAASGRTFSRYQMGWFRQAPGKEREFVAYISWSGSTRYVDSVKGRFTISRDNAKNTVYLQMNSLKPEDTAVYHCAAGTAGIISSRPETYDSWGQGTLVTVSS | no binding |
| F0103478E09 (VHH, Purified monovalent protein) VHH: EVQLVESGGGLVQAGGSLRLSCAASGRAFSTLAMGWFRQAPGKEREFVAAISRNGNNSATGDSLKGRFTISRDSTKSTVFLQMNTLKPEDTAVYYCAAISTPSASHPYVRKESYRYWGQGTLVTVSS | no binding |
| F0103492E09 (VHH, Purified monovalent protein) VHH: EVQLVESGGGLVQAGGSLRLSCAASKSILSFAYMRWYRQAPGKQREFVASIAIGGATSYTDSVKGRFTISRDNAKNTVYLQMNSLKPEDTAVYYCSAPAGQYRGQGTLVTVSS | no binding |

Now let's try a different one.
For record F0103505D08 (VHH, Purified monovalent protein; also called F0103505D8) VHH: EVQLVESGGGLVQAGGSLRLSCVTSGRTSDLSTMNWFRQAPGKEREFVARITRRGSTYYAESVKERFIISRDNAKNTVYLQMNSLKPEDTANYYCTAASEMGYHYRGQGTLVTVSS the listed binding result is no binding
